Tested on: HepG2-ACTB-RAB5A
experiment_description: lowest phenotypically active concentration; higher = less potent
test_conditions: treatment time: 24 h
readout_kind: lowest phenotypically active concentration (µM)
Express the result in µM but write the number alone.

> print(dat)
                         chemical.structure               tgt  display.unit  measured.value
1  COc1cc(C[C@H]2C(=O)OC[C@@H]2Cc2ccc(OC)c(OC)c2)ccc1O  HepG2-ACTB-RAB5A            µM               9
2  Cc1cccc(C)c1OCC(=O)N[C@@H](Cc1ccccc1)[C@@H](O)C[C@H](Cc1ccccc1)NC(=O)[C@H](C(C)C)N1CCCNC1=O  HepG2-ACTB-RAB5A            µM               9
3  NC(=O)[C@@H](CCC(F)(F)F)N(Cc1ccc(-c2ncon2)cc1F)S(=O)(=O)c1ccc(Cl)cc1  HepG2-ACTB-RAB5A            µM               9

# lowest phenotypically active concentration lookup, item COc1ccccc1S(=O)(=O)Nc1ccc2c(c1)CN(C)C(=O)N2
1

// repeat for C[C@H]1Oc2cc(cnc2N)-c2c(nn(C)c2C#N)CN(C)C(=O)c2ccc(F)cc21 and report
3

// repeat for Cn1cc(-c2[nH]c3cc(NC(=O)[C@H](N)C4CCCCC4)cc4c3c2C=NNC4=O)cn1 and report
1

---

System: HepG2-CANX-COX4
experiment_description: phenotypically active (imaging signature differs from DMSO and reproducible) at any of 0.3-9 uM (binary (1 = active, 0 = inactive)); higher = active
test_conditions: treatment time: 24 h
readout_kind: phenotypically active
Answer with a bare number; do not write a unit.

Completed entries (count: 2):
molecule	phenotypically active
C[C@@H]1COCCN1c1cc(C2(S(C)(=O)=O)CC2)nc(-c2cccc3[nH]ccc23)n1	1
C[N+](C)(C)CCOC(N)=O [Carbamoylcholine chloride]	0

# phenotypically active lookup, item COCCCOc1ccnc(CS(=O)c2nc3ccccc3[nH]2)c1C (stereo not drawn) [rabeprazole]
0

// repeat for CN1CCCC(n2nc(Cc3ccc(Cl)cc3)c3ccccc3c2=O)CC1 (stereo not drawn) [azelastine] and report
0

---

System: WPMY1-TUBA1B-RELA
experiment_description: phenotypically active (imaging signature differs from DMSO and reproducible) at any of 0.3-9 uM (binary (1 = active, 0 = inactive)); higher = active
test_conditions: treatment time: 24 h
Where a name gives a salt, the structure may show the parent alone.
Lab note: assign the record to one of active, inactive

compound	qualitative_label
Nc1nccc2c1ncn2[C@@H]1C=C(CO)[C@@H](O)[C@H]1O [3-Deazaneplanocin A hydrochloride]	active
N#Cc1c(C2CCNCC2)cc(-c2c(O)cccc2OCC2CC2)nc1N	active
CC(=O)OCC(=O)[C@@]12OC3(CCCC3)O[C@@H]1C[C@H]1[C@@H]3CCC4=CC(=O)C=C[C@]4(C)[C@@]3(F)[C@@H](O)C[C@@]12C [amcinonide]	inactive
O=c1ncn2nc(Sc3ccc(F)cc3F)ccc2c1-c1c(Cl)cccc1Cl	inactive
Cc1ccc(NC(=O)c2cccc(N(C)C)c2)cc1NC(=O)c1ccc(O)cc1	inactive
CN1CC[C@]23c4ccccc4N[C@H]1[C@]21CCN(C)[C@H]3Nc2ccccc21 [Calycanthine]	inactive
Cc1nnc(-c2ccc3occ(-c4ccc(S(C)=O)cc4)c3c2)o1 (stereo not drawn)	inactive
O=C(O)/C(Cc1ccccc1[N+](=O)[O-])=N\Nc1nc(-c2ccc(Cl)c(Cl)c2)cs1	inactive
CC(C)(C)NS(=O)(=O)c1cncc(-c2cc(F)c3nc(N)nn3c2)c1	inactive
CC(CN1c2ccccc2Sc2ccccc21)N(C)C (stereo not drawn) [promethazine]	active

Identify the outcome logged in this assay for the compound shown: CC(C)(C)c1cc(C(=O)/C=C/c2ccc(C(=O)O)cc2)cc(C(C)(C)C)c1
active

// repeat for CC(=O)O[C@H]1C(=O)[C@@]2(C)[C@H]([C@H](OC(=O)c3ccccc3)[C@]3(O)C[C@H](OC(=O)[C@H](O)[C@@H](NC(=O)c4ccccc4)c4ccccc4)C(C)=C1C3(C)C)[C@]1(OC(C)=O)CO[C@@H]1C[C@@H]2O [paclitaxel] and report
active

// repeat for COc1ncc2cc(C(=O)Nc3cc(C(=O)NCc4cccc(Cl)c4)ccc3Cl)c(=O)[nH]c2n1 and report
inactive

// repeat for CN(C)C1CCN(C(=O)c2ccc(NC(=O)Nc3ccc(-c4nc(N5CCOCC5)nc(N5CCOCC5)n4)cc3)cc2)CC1 and report
active

// repeat for Fc1ccc(-c2c3cccc(C(F)(F)F)c3nn2Cc2ccc(F)cc2Cl)cc1 and report
inactive

// repeat for CCN(CC)CCCC(C)Nc1ccnc2cc(Cl)ccc12 (stereo not drawn) [chloroquine] and report
active

// repeat for Cc1ccc(-c2csc3ncnc(SCCC(=O)O)c23)cc1 and report
inactive

// repeat for O=C(CCCN1CCC(O)(c2ccc(Cl)cc2)CC1)c1ccc(F)cc1 [haloperidol] and report
inactive

// repeat for Nc1cc(-c2ccncc2)c[nH]c1=O [amrinone] and report
inactive

// repeat for CC[N+](CC)(CC)CCOc1cccc(OCC[N+](CC)(CC)CC)c1OCC[N+](CC)(CC)CC [gallamine-triethiodide] and report
inactive

---

Tested on: HepG2-TP53BP1-CLTA
experiment_description: lowest phenotypically active concentration; higher = less potent
test_conditions: treatment time: 24 h
readout_kind: lowest phenotypically active concentration (µM)
Express the result in µM but write the number alone.

Completed entries (count: 2):
> print(dat)
                         chemical.structure  display.unit  measured.value
1  O=C(CCCc1ccc(-c2ccccc2F)cc1)Nc1ccc(O)cc1            µM               9
2       COc1cc(/C=C/c2ccc(OC)cc2OC)cc(OC)c1            µM               3

Now consider a different molecule.
Look up lowest phenotypically active concentration with HepG2-TP53BP1-CLTA for this molecule: CN1CCC(=C2c3ccccc3CC(=O)c3sccc32)CC1
9

---

Readings of lowest phenotypically active concentration for the listed compounds
Tested on: HepG2-CANX-COX4
experiment_description: lowest phenotypically active concentration; higher = less potent
test_conditions: treatment time: 24 h
Counter-ions that a name gives are not always drawn.
Express the result in µM but write the number alone.

> print(dat)
                                   compound  display.unit  measured.value
1  COc1cc2c(cc1OC)-c1c/c(=N/c3c(C)cc(C)cc3C)n(C)c(=O)n1CC2 [Trequinsin hydrochloride]            µM               9

Now consider a different compound.
# lowest phenotypically active concentration lookup, item CNC(=O)c1ccccc1Sc1ccc2c(/C=C/c3ccccn3)n[nH]c2c1 [Axitinib]
3

---

System: HepG2-ACTB-RAB5A
experiment_description: phenotypically active (imaging signature differs from DMSO and reproducible) at any of 0.3-9 uM (binary (1 = active, 0 = inactive)); higher = active
test_conditions: treatment time: 24 h
readout_kind: phenotypically active
Answer with a bare number; do not write a unit.

Completed entries (count: 3):
> print(dat)
                                   compound           readout.kind  measured.value
1  COc1ccc2c3c1O[C@H]1C[C@@H](O)C=C[C@@]31CCN(C)C2  phenotypically active               0
2  CCCNC(=O)NS(=O)(=O)c1ccc(Cl)cc1 [chlorpropamide]  phenotypically active               0
3  N#Cc1cccc(-c2c[nH]c3ncnc(N4CCOCC4)c23)c1  phenotypically active               1

# phenotypically active lookup, item Cc1ccc(S(=O)(=O)c2ccc([N+](=O)[O-])o2)cc1
1

// repeat for COCCCOc1ccnc(CS(=O)c2nc3ccccc3[nH]2)c1C (stereo unspecified) and report
1

// repeat for Nc1nc(S)c2[nH]cnc2n1 and report
1

---

Tested on: WPMY1-CANX-COX4
experiment_description: phenotypically active (imaging signature differs from DMSO and reproducible) at any of 0.3-9 uM (binary (1 = active, 0 = inactive)); higher = active
test_conditions: treatment time: 24 h
Counter-ions that a name gives are not always drawn.
readout_kind: phenotypically active

Completed entries (count: 6):
> print(dat)
                                   compound           readout.kind  measured.value
1  OC[C@H]1NC[C@@H](O)[C@@H](O)[C@@H]1O [1-Deoxymannojirimycin hydrochloride]  phenotypically active    0 (inactive)
2  N#Cc1c(O)c2c(-c3ccc(-c4ccccc4O)cc3)csc2[nH]c1=O  phenotypically active    0 (inactive)
3  OCCOCCN1CCN(C2=Nc3ccccc3Sc3ccccc32)CC1 [Quetiapine hemifumarate]  phenotypically active    0 (inactive)
4               Cc1cccc(Nc2ccccc2C(=O)O)c1C  phenotypically active    0 (inactive)
5  Cc1ccc(C(=O)N(CCCN)[C@@H](c2nc3cc(Cl)ccc3c(=O)n2Cc2ccccc2)C(C)C)cc1  phenotypically active      1 (active)
6  COc1ccc2c(NC(=O)Nc3cccc(C(F)(F)F)n3)ccnc2c1  phenotypically active      1 (active)

# phenotypically active lookup, item Cc1cc2nc(NCCCO)n(CC(=O)c3cc(C(C)(C)C)c(O)c(C(C)(C)C)c3)c2cc1C
0 (inactive)

// repeat for CCCc1cc2c(N3CCN(C4=NCC(C)(C)S4)CC3)ncnc2s1 [MI 2 dihydrochloride] and report
0 (inactive)

// repeat for CN(C)CCCC1(c2ccc(F)cc2)OCc2cc(C#N)ccc21 (centres undefined) and report
0 (inactive)
